Value source: PubChem BioAssay (NCI)

- Test system: NCI-H322M lung
- assay_notes: NCI-60 one-dose screen, 48 h (100 = growth as untreated, 0 = no growth, -100 = all killed)
- settings: 10 µM unless noted
About 83,000 compounds went through this panel and 20% of them were active in at least one assay; those are over-represented in the sample as a whole.
# Lookup of reported growth keyed by entry
observable: growth (%)

| compound | observed_value |
| --- | --- |
| CC(C)(C)CC(C)(C)n1nnnc1C(Nc1ccccc1)c1cc2cccc3ccc4cccc1c4c32 (centres undefined) | 91.5 |
| O=C1c2c(c3c4cccnc4[nH]c3c3ccc4ccccc4c23)C(=O)N1CCN1CCNCC1 | 88 |
| Cc1ccc(NC(=O)N[C@@H](Cc2cc(F)cc(F)c2)C(=O)NC2C(=O)N3CCC[C@H]3C(=O)N3CCCC[C@H]3C(=O)N[C@@H](C)C(=O)N3C[C@H](C)C[C@H]3C(=O)O[C@H]2C)c(F)c1 (some centres undefined) | 52.7 |
| CCOC(=O)c1c(NC(=O)c2ccc(C(C)(C)C)cc2)sc2cc(OCCN3CCCCC3)ccc12 | 83.1 |
